System: α7 integrin (LacZ reporter in α7βgal+/− myoblasts)
Assay: Myoblast α7+/LacZ integrin FDG assay (Burkin assay in myoblasts, 96-well)
Assay type: cell-based, mouse
Conditions: 10 uM; α7+/LacZ myoblasts, 96-well
Reported Burkin Assay in Myoblasts, signal relative to DMSO values for the following molecules.
Number only, no unit.

molecule="Cc1ccc(NC(=O)COc2ccccc2CNC(C)(C)CC(C)(C)C)cc1 [MLS000538580-01]" testvalue=0.5306
molecule="CCOC(=O)c1sc(=N)n(-c2ccc(OC)cc2)c1C [MLS000090135-01]" testvalue=1.018
molecule="O=C(Nc1cc(-c2nc3ccccc3s2)ccc1Cl)c1ccc2c(c1)OCO2 [MLS000560266-01]" testvalue=1.13
molecule="Cc1cc(C)nc(NC(=O)c2ccc(Cl)cc2Cl)n1 [MLS000706349-01]" testvalue=0.8434
molecule="Cl.O=C(CN1CCOCC1)NCc1cc([N+](=O)[O-])ccc1O [MLS001211976-01]" testvalue=0.9154
molecule="NS(=O)(=O)c1ccc(NC(=O)c2ccc(CNS(=O)(=O)c3cc(C(F)(F)F)ccc3Cl)cc2)cc1 [MLS000393110-01]" testvalue=1.088
molecule="CC(=O)Nc1ccc(-n2c(C)nc(=O)c(-c3ccccc3)c2C)cc1 [MLS000078709-01]" testvalue=0.8052
molecule="Cl.O=C1C2CCCN2C(=O)N1CCCN1CCN(c2cccc(Br)c2)CC1 (stereo not drawn) [MLS001180929-01]" testvalue=1.05

Next molecule, please.
Fill blank: measured Burkin Assay in Myoblasts, signal relative to DMSO of the molecule CC(C)(C)Nc1nc(-c2ccc3c(c2)CCN3C(=O)C2CC2)cs1 [MLS001216939-01] is ____.
0.9828
